System: HT-1197 cells
protocol text: Cell-based assay: anti-proliferative activity, Cell Counting Kit-8, 72 hours (HT-1197, negative control without MELK expression)
run parameters: Homo sapiens, HT1197, 72 h, HT1197 cells (negative control, no MELK expression), 72 hours
Counter-ions that a name gives are not always drawn.
Listed next: entries and their corresponding log10 of IC50.
experimental readout: log10 of IC50 (log10 of the value in µM)

{"columns": ["compound", "log10 of IC50"],
 "data": [
  ["CC(=O)c1cnc2ccc(-c3cc(F)c(O)c(Cl)c3)cc2c1N[C@H]1CCC[C@@H](CN(C)C)C1 [Example 826, hydrochloride]", 0.28],
  ["COc1cc(-c2ccc3ncc(C(C)=O)c(Nc4ccc(CCN(C)C)cc4)c3c2)cc(Cl)c1O", 0.68],
  ["CN(C)C1CCN(Cc2ccc(Nc3c(C(=O)C4CC4)cnc4ccc(-c5cc(Cl)c(O)c(Cl)c5)cc34)cc2)C1 (stereo not shown) [Example 694]", 0.88],
  ["COc1cc(-c2ccc3ncc(C(=O)C4CC4)c(Nc4cnc(N5CCCC(N)C5)nc4)c3c2)cc(Cl)c1O (stereo not shown)", 0.38],
  ["CN(C)CCOc1ccc(Nc2c(C(=O)C3CC3)cnc3ccc(-c4cc(Cl)c(O)c(Cl)c4)cc23)cn1", 0.76],
  ["CN(C)Cc1ccc(Nc2c(S(C)(=O)=O)cnc3ccc(-c4ccc(O)c(Cl)c4)cc23)cc1", -0.20],
  ["CC(=O)c1cnc2ccc(-c3cc(F)c(O)c(Cl)c3)cc2c1Nc1ccc(OCCN(C)C)nc1 [Example 848, hydrochloride]", 0.72]
]}
